- Tested on: PPARg DBDmut:RXRa IVT, anti-PPARg (DBD mutation: PPARg1 K132A/R137A, NR concentration 270 nM, RXRa partner concentration 90 nM)
- test.description: PBM binding z-score (relative to random genomic background probes); higher = stronger binding; sequences stand for … in GC…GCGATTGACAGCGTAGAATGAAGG
Recorded PBM binding z-score determines the label; the label ranges are low range: < 0.4; mid range: ≥ 0.4 and < 2; high range: ≥ 2

[[record]]
entry_sequence = "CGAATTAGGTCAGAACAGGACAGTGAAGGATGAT"
label = "high range"

[[record]]
entry_sequence = "TCATATAGGTAATTGCTAGGTGAAAGTCCGATCT"
label = "mid range"

[[record]]
entry_sequence = "TAGCCTAGGTTATTCAGGGGCCAGTATAGAAAGC"
label = "mid range"

[[record]]
entry_sequence = "TCTTGTTGGTCAAAGGTCACACACTCGAAATGCG"
label = "mid range"

[[record]]
entry_sequence = "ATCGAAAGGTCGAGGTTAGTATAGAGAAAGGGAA"
label = "mid range"

[[record]]
entry_sequence = "GCTAATTGGTCAGTAAAAGGTCACACACCGGTCG"
label = "low range"

[[record]]
entry_sequence = "TCGAGTAGGTTAGGGGCATTCCGAATGGCGTCGA"
label = "low range"

[[record]]
entry_sequence = "CGAACCAGGGCATGAGTTGATAGCAAATGCCGAT"
label = "low range"

[[record]]
entry_sequence = "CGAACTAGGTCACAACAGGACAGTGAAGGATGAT"
label = "high range"

[[record]]
entry_sequence = "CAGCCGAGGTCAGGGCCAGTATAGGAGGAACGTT"
label = "low range"

[[record]]
entry_sequence = "CAATCTAGGTCAAGGTCAAAGTCGGTTTGTGCCA"
label = "high range"


====

- Test system: LXRb:RXRa (NR concentration 270 nM, RXRa partner concentration 90 nM)
- test.description: PBM binding z-score (relative to random genomic background probes); higher = stronger binding; sequences stand for … in GC…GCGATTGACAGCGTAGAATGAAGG
Recorded PBM binding z-score determines the label; the label ranges are low range = under 0.5, mid range = from 0.5 up to 2, high range = 2 and over

[[record]]
entry_sequence = "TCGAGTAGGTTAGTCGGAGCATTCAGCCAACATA"
label = "low range"

[[record]]
entry_sequence = "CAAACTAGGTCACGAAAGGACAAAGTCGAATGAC"
label = "high range"

[[record]]
entry_sequence = "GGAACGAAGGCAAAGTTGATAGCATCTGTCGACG"
label = "low range"

[[record]]
entry_sequence = "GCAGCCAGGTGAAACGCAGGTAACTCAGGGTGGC"
label = "low range"

[[record]]
entry_sequence = "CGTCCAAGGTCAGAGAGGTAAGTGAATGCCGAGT"
label = "high range"

[[record]]
entry_sequence = "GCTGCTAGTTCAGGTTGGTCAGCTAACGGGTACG"
label = "low range"

[[record]]
entry_sequence = "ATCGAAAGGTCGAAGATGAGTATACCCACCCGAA"
label = "high range"

[[record]]
entry_sequence = "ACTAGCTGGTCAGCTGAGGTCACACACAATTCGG"
label = "high range"

[[record]]
entry_sequence = "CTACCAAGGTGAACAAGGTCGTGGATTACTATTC"
label = "mid range"

[[record]]
entry_sequence = "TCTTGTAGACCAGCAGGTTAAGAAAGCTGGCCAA"
label = "low range"

[[record]]
entry_sequence = "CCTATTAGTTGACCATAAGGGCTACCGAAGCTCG"
label = "low range"

[[record]]
entry_sequence = "CCTACTGGGCCAGGGTCATTGATCAGTCAAAGCA"
label = "high range"

[[record]]
entry_sequence = "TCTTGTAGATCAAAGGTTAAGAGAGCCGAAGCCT"
label = "mid range"

[[record]]
entry_sequence = "ACAGACACGTGAGTGAAGGTAACTCAGCTGGACG"
label = "low range"

[[record]]
entry_sequence = "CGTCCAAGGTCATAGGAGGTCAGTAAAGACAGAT"
label = "high range"

[[record]]
entry_sequence = "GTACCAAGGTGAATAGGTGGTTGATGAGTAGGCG"
label = "low range"

[[record]]
entry_sequence = "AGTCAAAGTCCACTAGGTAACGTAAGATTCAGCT"
label = "low range"

[[record]]
entry_sequence = "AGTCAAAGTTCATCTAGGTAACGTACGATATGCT"
label = "high range"

[[record]]
entry_sequence = "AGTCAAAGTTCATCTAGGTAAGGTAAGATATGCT"
label = "high range"

[[record]]
entry_sequence = "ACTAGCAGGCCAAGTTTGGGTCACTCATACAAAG"
label = "mid range"

[[record]]
entry_sequence = "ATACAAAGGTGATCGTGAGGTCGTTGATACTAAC"
label = "mid range"

[[record]]
entry_sequence = "AATACCGGGTCATCGTAGGCCAGAGTACGCACAG"
label = "high range"

[[record]]
entry_sequence = "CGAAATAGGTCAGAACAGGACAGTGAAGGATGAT"
label = "mid range"

[[record]]
entry_sequence = "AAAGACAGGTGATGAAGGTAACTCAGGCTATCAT"
label = "low range"

[[record]]
entry_sequence = "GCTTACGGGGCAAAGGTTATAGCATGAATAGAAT"
label = "high range"

[[record]]
entry_sequence = "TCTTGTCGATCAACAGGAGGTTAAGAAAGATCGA"
label = "mid range"

[[record]]
entry_sequence = "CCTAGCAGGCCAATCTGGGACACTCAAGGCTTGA"
label = "low range"

[[record]]
entry_sequence = "ATCGAAAGGTCGAAGGTGAATATACCCACCCGAA"
label = "high range"

[[record]]
entry_sequence = "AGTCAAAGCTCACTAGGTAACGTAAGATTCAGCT"
label = "low range"

[[record]]
entry_sequence = "GCAGACAAGTGAAACGCAGGTAACTCAGGGTGGC"
label = "low range"

[[record]]
entry_sequence = "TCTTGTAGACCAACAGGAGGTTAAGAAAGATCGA"
label = "mid range"

[[record]]
entry_sequence = "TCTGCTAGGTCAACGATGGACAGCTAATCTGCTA"
label = "mid range"

[[record]]
entry_sequence = "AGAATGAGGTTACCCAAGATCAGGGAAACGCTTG"
label = "high range"

[[record]]
entry_sequence = "CCTACTGGGCCAAGGGTCATTGATTCCAATGCTC"
label = "high range"

[[record]]
entry_sequence = "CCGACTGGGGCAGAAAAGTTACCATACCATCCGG"
label = "low range"

[[record]]
entry_sequence = "GCTCGGAGCACAAGGTCAGAGCTTTGTCCGTAGA"
label = "mid range"

[[record]]
entry_sequence = "CCTTACGGGTCACTTCAGGTTATAGCATCGGAGT"
label = "high range"

[[record]]
entry_sequence = "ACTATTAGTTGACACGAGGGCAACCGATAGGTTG"
label = "mid range"

[[record]]
entry_sequence = "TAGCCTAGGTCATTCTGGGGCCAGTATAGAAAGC"
label = "high range"

[[record]]
entry_sequence = "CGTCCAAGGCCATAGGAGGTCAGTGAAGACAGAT"
label = "mid range"

[[record]]
entry_sequence = "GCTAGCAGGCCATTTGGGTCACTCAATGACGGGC"
label = "low range"

[[record]]
entry_sequence = "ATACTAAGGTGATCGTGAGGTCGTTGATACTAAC"
label = "mid range"

[[record]]
entry_sequence = "TAGCCTAGGTCATATCGGGCCAGTATACGCTATA"
label = "high range"

[[record]]
entry_sequence = "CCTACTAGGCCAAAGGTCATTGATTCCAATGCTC"
label = "high range"

[[record]]
entry_sequence = "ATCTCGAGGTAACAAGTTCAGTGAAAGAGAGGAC"
label = "mid range"

[[record]]
entry_sequence = "AGTCAAAGTTCAGGACGAGGTAACGTCAAGCACG"
label = "mid range"

[[record]]
entry_sequence = "CCTTACGGGTCAAGGTTATAACACGGGTGGTACG"
label = "high range"

[[record]]
entry_sequence = "GATACAGTGTCAGCTAGAGGCCAGAGTATGGAAA"
label = "low range"

[[record]]
entry_sequence = "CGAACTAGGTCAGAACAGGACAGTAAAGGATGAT"
label = "mid range"


These entries and their values trace back to the supplement of paper PMC6555819.
